Hello, the source for this data is the PETadex activity labels (doi:10.1016/s0014-5793(99)00813-3), in case you need it.

Substrate: p-NP-C4
cond: pH 7.1; 25 °C
outcomeMeasure: kcat/Km (M⁻¹ s⁻¹)
// return numeric value only (unit: M⁻¹ s⁻¹, not printed)

Please give the measured kcat/Km for this protein: unnamed (protein) MKPENKLPVLDLISAEMKTVVNTLQPDLPPWPATGTIAEQRQYYTLERRFWNAGAPEMATRAYMVPTKYGQVETRLFCPQPDSPATLFYLHGGGFILGNLDTHDRIMRLLASYSQCTVIGIDYTLSPEARFPQAIEEIVAACCYFHQQAEDYQINMSRIGFAGDSAGAMLALASALWLRDKQIDCGKVAGVLLWYGLYGLRDSVTRRLLGGVWDGLTQQDLQMYEEAYLSNDADRESPYYCLFNNDLTREVPPCFIAGAEFAPLLDDSRLLYQTLAAHQQPCEFKLYPGTLHAFLHYSRMMKTADEALRDGAQFFTAQL
85
